Please go through the items and note down their fold change (FC).
- experimentalSystem: Melanocyte-stimulating hormone receptor (Mus musculus)
- assayExplanation: Agonist activity at mouse MC1R expressed in HEK293 cells by CRE/beta-galactosidase reporter gene assay relative to Ac-His-DPhe7-Arg-Trp-NH2 peptide
- Type: functional, cell-based
Answers are plain numbers.

CC(=O)N[C@@H](Cc1cnc[nH]1)C(=O)N[C@H](Cc1ccc(F)cc1)C(=O)N[C@@H](CCCNC(=N)N)C(=O)N[C@@H](Cc1c[nH]c2ccccc12)C(N)=O	-2

For the 4 molecules below, give their fold change (FC) values.
1. CC(=O)N[C@@H](Cc1cnc[nH]1)C(=O)N[C@H](Cc1ccc(N)cc1)C(=O)N[C@@H](CCCNC(=N)N)C(=O)N[C@@H](Cc1c[nH]c2ccccc12)C(N)=O
2. CC(=O)N[C@@H](Cc1cnc[nH]1)C(=O)N[C@H](Cc1ccccc1)C(=O)N[C@@H](CCCNC(=N)N)C(=O)N[C@@H](Cc1c[nH]c2ccccc12)C(N)=O
3. CC(=O)N[C@@H](Cc1cnc[nH]1)C(=O)N[C@H](Cc1ccc(Cl)c(Cl)c1)C(=O)N[C@@H](CCCNC(=N)N)C(=O)N[C@@H](Cc1c[nH]c2ccccc12)C(N)=O
4. CC(=O)N[C@@H](Cc1cnc[nH]1)C(=O)N[C@H](Cc1ccc(O)cc1)C(=O)N[C@@H](CCCNC(=N)N)C(=O)N[C@@H](Cc1c[nH]c2ccccc12)C(N)=O

Result:
[21, 1, 1, 23]
